Test system: solanum Lycopersicum L.
Assay Procedure: activity on agrarian species, soil treatment one day after sowing
Assay type: in vivo
Run Conditions: in vivo
# reported activity on M, 0-4 scale; entries follow

CCCCN(C(=O)c1ccc(Cl)c(Cl)c1)C(C)CC (centres unmarked): 0

State the recorded activity on M, 0-4 scale for this entry: CCC(C)N(C(=O)c1c(Cl)cccc1Cl)C(C)CC (centres unmarked) [PA227, 2,6-dichloro-N,N-di-sec.butyl-benzamide]
1

And the next one, CCC(C)N(C(=O)c1cc(Cl)ccc1Cl)C(C)CC (centres unmarked) [PA412, 2,5-dichloro-N,N-di-sec.butyl-benzamide] ?
1

CCN(CC)C(=O)c1ccc(Cl)c(Cl)c1 [PA61, 3,4-dichloro-N,N-diethyl-benzamide, reference compound] , same question.
3-4

Same question, CCC(C)N(C(=O)c1ccc(C)c(Cl)c1)C(C)CC (centres unmarked) this time
0

====

Overview of reported activity on O, 0-4 scale across a group of molecules:
Test system: zea mais L. (corn)
Assay Procedure: activity on agrarian species, soil treatment one day after sowing
Format: in vivo
Run Conditions: in vivo
// return just the number, without any unit appended

These recorded examples may help you get a feel for the data.
CCC(C)N(C(=O)c1ccc(C)c(Cl)c1)C(C)CC (stereo not shown): 0
CCN(CC)C(=O)c1ccc(Cl)c(Cl)c1 [PA61, 3,4-dichloro-N,N-diethyl-benzamide, reference compound]: 2

activity on O, 0-4 scale lookup needed for CCN(CC)C(=O)c1cc(Cl)cc(Cl)c1 [PA291, 3,5-dichloro-N,N-diethyl-benzamide, reference compound] , thanks.
4

Then this molecule: CCC(C)N(C(=O)c1cccc(Cl)c1)C(C)CC (stereo not shown) [PA215, 3-chloro-N,N-di-sec.butyl-benzamide]
0

Try this molecule next: CCC(C)N(C(=O)c1ccc(C)c(C)c1)C(C)CC (stereo not shown) [PA233, 3,4-dimethyl-N,N-di-sec.butyl-benzamide]
0

====

In this section, each of the molecules is paired with its reported activity on C, 0-4 scale.
Tested on: chenopodium album L.
Assay Procedure: herbicidal activity, soil treatment one day after sowing
Assay type: in vivo
Run Conditions: 4 kg/ha
Could you respond with only the numeric value?

What activity on C, 0-4 scale value was documented for this molecule, CCC(C)N(C(=O)c1cccc(Br)c1)C(C)CC (stereo not shown) [PA337/3/Br, 3-bromo-N,N-di-sec.butyl-benzamide] ?
3

For C=CCN(CC=C)C(=O)c1cccc(Br)c1 [PA499, 3-bromo-N,N-di-allyl-benzamide, reference compound] then?
2

Try this molecule next: CCC(C)N(C(=O)c1ccc(Br)c(Br)c1)C(C)CC (stereo not shown) [PA484, 3,4-dibromo-N,N-di-sec.butyl-benzamide]
1

Can you check CCC(C)N(C(=O)c1ccc(Cl)c(Cl)c1Cl)C(C)CC (stereo not shown) next?
3

Note, next up: CCC(C)N(C(=O)c1cccc(C)c1)C(C)CC (stereo not shown) [PA226, 3-methyl-N,N-di-sec.butyl-benzamide]
1

Let us now turn to CCC(C)N(C(=O)c1c(Cl)cccc1Cl)C(C)CC (stereo not shown) [PA227, 2,6-dichloro-N,N-di-sec.butyl-benzamide]
2

Repeat with CCN(CC)C(=O)c1cc(Cl)cc(Cl)c1 [PA291, 3,5-dichloro-N,N-diethyl-benzamide, reference compound]
3

What about this molecule? CCC(C)N(C(=O)c1cccc(Cl)c1Cl)C(C)CC (stereo not shown) [PA336, 2,3-dichloro-N,N-di-sec.butyl-benzamide]
3
